experiment.description: chemical genetic growth profiling, strain panel (AID 1159580);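 further: tested at 20 µM; growth read once vehicle control cultures reached saturation at 30 °C; 1 = growth at the plate median or of vehicle wells; lower values mean less growth of the strain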
condition.set: S. cerevisiae deletion strains, growth OD, locus YDR335W, strain msn5, hits give low values
The whole screen tested about 5,500 compounds, of which about 2,000 (36%) were called active. Another 18% or so got no clear call; they are omitted. The list shows a part of the results.
measure: normalized growth
Please reply with the number alone, leaving off any unit.

Completed entries (count: 3):
compound	normalized growth
COc1cc(OC)c(OC)cc1C=O	1
OC[C@H]1OC([S-])[C@H](O)[C@@H](O)[C@@H]1O.[Au+] (some centres not stated)	1.02
NNCCc1ccccc1	1.01

input: Which normalized growth is reported for this compound? O=c1cc(-c2ccccc2)oc2cccc(O)c12
output: 0.968

input: For the compound shown here, COC(=O)CCCOc1ccc(Cl)cc1Cl , give the reported normalized growth.
output: 0.968

input: Please look up its normalized growth: COc1cc([C@H]2Oc3cc([C@H]4Oc5cc(O)cc(O)c5C(=O)[C@@H]4O)ccc3O[C@@H]2CO)ccc1O
output: 1

input: Fill in: normalized growth of C=C1C2=CC(=O)O[C@@H](c3ccoc3)[C@]2(C)CCC1[C@@]1(C)C=CC(=O)C(C)(C)[C@@H]1CC(=O)OC (some centres not stated) is ___
output: 0.997

input: Please look up its normalized growth: CN1CCN(C2=Nc3ccccc3Oc3ccc(Cl)cc32)CC1
output: 0.982

input: Any idea what its normalized growth is? The compound is Cc1cc(O)c(C=O)c2c1C(=O)Oc1c(COC(=O)/C=C/C(=O)O)c(O)c(C(=O)O)c(C)c1O2
output: 0.943

input: Which measured normalized growth value corresponds to Nc1cc(C(Cl)=C(Cl)Cl)c(S(N)(=O)=O)cc1S(N)(=O)=O ?
output: 1.01

input: Can you look up the measured normalized growth of COc1ccc(C(=O)CC(=O)c2ccc(C(C)(C)C)cc2)cc1 for me?
output: 1

input: Recorded normalized growth of CC(CCC(=O)O)[C@H]1CCC2C3CC[C@@H]4CCCC[C@]4(C)C3CC[C@@]21C (some centres not stated) , please.
output: 1

input: Need normalized growth, item CC(CCC(=O)O)[C@H]1CCC2C3CC[C@@H]4C[C@H](O)CC[C@]4(C)C3CC[C@@]21C (some centres not stated)
output: 0.926

input: Fill blank: measured normalized growth of the compound CSc1ccc2c(c1)N(CCC1CCCCN1C)c1ccccc1S2 (configuration not stated) is ____.
output: 0.967

input: Any idea what its normalized growth is? The compound is C=C1C2CCC3(C)C(c4ccoc4)OC(=O)CC13OC1CC(OC(C)=O)C(C)(C)C(CC(=O)OC)C12C (configuration not stated)
output: 1

input: // lookup normalized growth for COC(=O)CCC(C)C1CCC2C3CC[C@@H]4C[C@H](O)CC[C@]4(C)C3C[C@H](O)[C@]12C (some centres not stated)
output: 0.975

input: Suppose we examine the compound CCN(CCCc1ccccc1)CCCc1ccccc1 ; what normalized growth value has been reported?
output: 0.983

input: If you can, please state the reported normalized growth value of O=c1[nH]cnc2[nH]ncc12 .
output: 1.01

input: Consider the compound COc1ccc(C(=O)N2CCCC2=O)cc1 and give its measured normalized growth.
output: 0.975

input: Please look up its normalized growth: CC(C)CCCC(C)C1CCC2C3CC[C@H]4CCCC[C@]4(C)C3CC[C@]12C (some centres not stated)
output: 1.02

input: Give its normalized growth value. Item: O=C(O)c1ccccc1C(=O)Nc1ccc(S(=O)(=O)Nc2nccs2)cc1
output: 0.984

input: I am curious: what normalized growth value has been reported for CC(=O)N=c1sc(S(N)(=O)=O)nn1C ?
output: 1.01

----------
Listing of entries alongside the reported normalized growth.
experiment.description: chemical genetic growth profiling, strain panel (AID 1159580)
condition.set: S. cerevisiae deletion strains, growth OD, locus YDL185W, strain tfp1, hits give low values
Out of some 5,500 compounds screened, about 2,000 (36%) were called active. Roughly 18% stayed inconclusive and do not appear here. The list shows a part of the results.
// return just the number, without any unit appended

Worked examples, 3 molecules total:
molecule	observed
Nc1ccn(C2O[C@H](CO)[C@@H](O)[C@H]2O)c(=O)n1 (some centres undefined)	1.03
Cc1cc(O)c(C=O)c2c1C(=O)Oc1c(COC(=O)/C=C/C(=O)O)c(O)c(C(=O)O)c(C)c1O2	0.919
COC(=O)CCC(=O)O[C@H]1CCC2(C)C(CCC3C2C(=O)[C@@H](O)C2(C)C3CC3OC4(CCC(C)CO4)[C@@H](C)C32)C1 (some centres undefined)	0.996

Moving on to another molecule below.
input: Suppose we examine the molecule Cc1cc(O)c(C=O)c2c1C(=O)Oc1c(C)c(O)c3c(c1O2)C(O)OC3=O (centres undefined) ; what normalized growth value has been reported?
output: 0.954

----------
experiment.description: chemical genetic growth profiling, strain panel (AID 1159580)
condition.set: S. cerevisiae deletion strains, growth OD, locus YLR221C, strain rsa3, hits give low values
Among all 5,500 compounds or so, about 2,000 (36%) were called active. About 18% were inconclusive and are not listed. Some of the results follow.
In this section we review reported normalized growth values for a set of compounds.
Form: value (number only, do not type unit).

compound	normalized growth
O=c1cc(-c2ccccc2)oc2c(O)c(O)ccc12	0.994
CN[C@@H]1[C@H](OC2[C@H](O[C@H]3[C@H](O)[C@@H](O)[C@H](N=C(N)N)[C@@H](O)[C@@H]3N=C(N)N)O[C@@H](C)[C@]2(O)C=O)O[C@@H](CO)[C@H](O)[C@H]1O (stereo not given in full)	0.989
COc1c(Cl)ccc(Cl)c1C(=O)O	0.983
CC(=O)N=c1sc(S(N)(=O)=O)nn1C	1

input: Fill in the blank: the reported normalized growth of O=c1cc(-c2cc(O)c(O)c(O)c2)oc2cc(O)cc(O)c12 is ____.
output: 0.928

----------
experiment.description: chemical genetic growth profiling, strain panel (AID 1159580);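 further: tested at 20 µM; growth read once vehicle control cultures reached saturation at 30 °C; 1 = growth at the plate median or of vehicle wells; lower values mean less growth of the strain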
condition.set: S. cerevisiae deletion strains, growth OD, locus YNL183C, strain NPR1, hits give low values
Out of some 5,500 compounds screened, about 2,000 (36%) were called active. About 18% were inconclusive and are not listed. The list shows a part of the results.
measure: normalized growth

input: Which normalized growth reading was recorded for the compound O=S(=O)(Nc1ccc(Oc2ccc(Cl)cc2)cc1)c1ccccc1 ?
output: 0.154 (active)

input: What does the record list as normalized growth for O=c1[nH]cnc2[nH]ncc12 ?
output: 0.977 (inactive)

input: normalized growth lookup needed for Cc1cc(O)c(C=O)c2c1C(=O)Oc1c(C)c(O)c3c(c1O2)C(O)OC3=O (stereo unspecified) , thanks.
output: 0.944 (inactive)

input: Quick one: normalized growth for CCCCC[C@H](CC(=O)NO)C(=O)N[C@H](C(=O)N1CCC[C@H]1CO)C(C)C ?
output: 0.942 (inactive)

input: # query: normalized growth of entry CN(C)C(=O)Nc1ccc(Cl)c(Cl)c1
output: 0.939 (inactive)

input: Given the entry Oc1ccc(N=Nc2ccccn2)c(O)c1 , report its measured normalized growth.
output: 0.123 (active)

----------
normalized growth values by entry
experiment.description: chemical genetic growth profiling, strain panel (AID 1159580);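 further: tested at 20 µM; growth read once vehicle control cultures reached saturation at 30 °C; 1 = growth at the plate median or of vehicle wells; lower values mean less growth of the strain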
condition.set: S. cerevisiae deletion strains, growth OD, locus YNL298W, strain CLA4 (second series), hits give low values
Among all 5,500 compounds or so, about 2,000 (36%) were called active. Inconclusive results (about 18%) are left out. This is one part of the list.
Format: numeric value only, no unit, no commentary.

// below: answered compounds
compound	measure	observed
Cc1c(S(=O)(=O)c2ccc(Cl)cc2)csc1S(=O)(=O)N/N=C\c1c(Cl)cccc1Cl	normalized growth	1.03
Cc1ccc2cc(NC(=O)c3ccco3)ccc2n1	normalized growth	0.807
CCc1ccccc1NC(C)=O	normalized growth	1.03
OC1(c2ccc(Cl)cc2)CSc2nc3cc(C(F)(F)F)ccc3n21 (configuration not stated)	normalized growth	1.1
CC(=O)Nc1ccc(C(F)(F)F)cc1Br	normalized growth	0.957
O=C(Nc1ccccc1)Nc1ccc(C(F)(F)F)cc1Br	normalized growth	0.799

Okay, now this compound:
input: What does the record list as normalized growth for COc1ccc(C=Nc2ccc(O)cc2)cc1 ?
output: 1.04

----------
experiment.description: chemical genetic growth profiling, strain panel (AID 1159580);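 further: tested at 20 µM; growth read once vehicle control cultures reached saturation at 30 °C; 1 = growth at the plate median or of vehicle wells; lower values mean less growth of the strain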
condition.set: S. cerevisiae deletion strains, growth OD, locus YGL227W, strain vid30, hits give low values
Hit rate of the full screen: of about 5,500 compounds, about 2,000 (36%) were called active. Roughly 18% stayed inconclusive and do not appear here. Some of the results follow.
measure: normalized growth
Field format: numeric only.

A selection of reference data follows.
molecule	normalized growth
c1ccc2c(c1)CN1CCCC1=N2	0.993
CC(=O)OCC(=O)[C@@]1(O)[C@H](OC(C)=O)CC2C3CCC4=CC(=O)C=C[C@]4(C)[C@@]3(F)[C@@H](O)C[C@@]21C (some centres not stated)	0.979
NC(N)=O	1.02
NS(=O)(=O)c1cc2c(cc1Cl)NC(C1CC3C=CC1C3)NS2(=O)=O (configuration not stated)	0.978
CC12CC3CC(C)(C1)CC(N)(C3)C2	0.994

input: Tell me the measured normalized growth of Nc1cc(C(Cl)=C(Cl)Cl)c(S(N)(=O)=O)cc1S(N)(=O)=O , please.
output: 1

input: Give the measured normalized growth of Cc1nc2ccccn2c(=O)c1CCN1CCC(C(=O)c2ccc(F)cc2)CC1 .
output: 1
